kinase still bound, per cent of control listing for selected compounds.
Target: LYN (human) (UniProt P07948)
Sequence (P07948 whole entry, looked up): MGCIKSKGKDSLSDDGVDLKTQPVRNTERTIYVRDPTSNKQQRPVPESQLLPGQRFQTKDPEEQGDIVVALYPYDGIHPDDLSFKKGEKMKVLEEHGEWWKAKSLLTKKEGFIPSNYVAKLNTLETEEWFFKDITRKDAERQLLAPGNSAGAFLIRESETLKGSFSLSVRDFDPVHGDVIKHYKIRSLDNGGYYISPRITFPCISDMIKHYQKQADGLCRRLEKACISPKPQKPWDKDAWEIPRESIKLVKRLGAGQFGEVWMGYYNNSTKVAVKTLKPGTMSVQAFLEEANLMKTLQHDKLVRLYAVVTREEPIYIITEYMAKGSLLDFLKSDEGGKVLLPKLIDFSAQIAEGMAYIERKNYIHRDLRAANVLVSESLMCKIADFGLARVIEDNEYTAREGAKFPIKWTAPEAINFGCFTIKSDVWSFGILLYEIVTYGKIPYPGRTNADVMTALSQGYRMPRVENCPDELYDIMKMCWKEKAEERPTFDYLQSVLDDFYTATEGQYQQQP
Assay: KINOMEscan competition binding
Settings: compound 10.0 µM
Express it in %; write the number only.

Some compounds with known kinase still bound, per cent of control results, for comparison:
{"smiles_str": "CCN1CCN(Cc2ccc(NC(=O)c3ccc(C)c(/C=C/c4cnc(Nc5cc(N6CCNCC6)nc(C)n5)cn4)c3)cc2C(F)(F)F)CC1", "kinase still bound, per cent of control / %": 1}
{"smiles_str": "CCN1CCN(Cc2ccc(NC(=O)c3ccc(C)c(Oc4ccnc5[nH]ccc45)c3)cc2C(F)(F)F)CC1", "kinase still bound, per cent of control / %": 0.75}
{"smiles_str": "CCOc1cc(N2CCC(N3CCCCC3)CC2)ccc1Nc1nc(Nc2ccccc2S(=O)(=O)C(C)C)c2cn[nH]c2n1", "kinase still bound, per cent of control / %": 100}

Q: Please look up its kinase still bound, per cent of control: COc1cc(N2CCC(N3CCN(C)CC3)CC2)ccc1Nc1ncc(Cl)c(Nc2ccccc2S(=O)(=O)C(C)C)n1
A: 5

* * *

Target: EPHB2 (human)
Assay: KINOMEscan competition binding
Details: compound 10.0 µM
kinase still bound, per cent of control listing for selected compounds.
Could you write the number and then its unit?

Some compounds with known kinase still bound, per cent of control results, for comparison:
{"smiles_str": "CCN1CCN(Cc2ccc(NC(=O)c3ccc(C)c(/C=C/c4cnc(Nc5cc(N6CCNCC6)nc(C)n5)cn4)c3)cc2C(F)(F)F)CC1", "kinase still bound, per cent of control": "5.7%"}
{"smiles_str": "CCN1CCN(Cc2ccc(NC(=O)c3ccc(C)c(Oc4ccnc5[nH]ccc45)c3)cc2C(F)(F)F)CC1", "kinase still bound, per cent of control": "11%"}
{"smiles_str": "CCOc1cc(N2CCC(N3CCCCC3)CC2)ccc1Nc1nc(Nc2ccccc2S(=O)(=O)C(C)C)c2cn[nH]c2n1", "kinase still bound, per cent of control": "100%"}

Please turn your attention to the following entry.
Q: Please look up its kinase still bound, per cent of control: COc1cc(N2CCC(N3CCN(C)CC3)CC2)ccc1Nc1ncc(Cl)c(Nc2ccccc2S(=O)(=O)C(C)C)n1
A: 33%

* * *

Biological target: UniProtKB Q99759
Sequence (Q99759 whole entry, looked up): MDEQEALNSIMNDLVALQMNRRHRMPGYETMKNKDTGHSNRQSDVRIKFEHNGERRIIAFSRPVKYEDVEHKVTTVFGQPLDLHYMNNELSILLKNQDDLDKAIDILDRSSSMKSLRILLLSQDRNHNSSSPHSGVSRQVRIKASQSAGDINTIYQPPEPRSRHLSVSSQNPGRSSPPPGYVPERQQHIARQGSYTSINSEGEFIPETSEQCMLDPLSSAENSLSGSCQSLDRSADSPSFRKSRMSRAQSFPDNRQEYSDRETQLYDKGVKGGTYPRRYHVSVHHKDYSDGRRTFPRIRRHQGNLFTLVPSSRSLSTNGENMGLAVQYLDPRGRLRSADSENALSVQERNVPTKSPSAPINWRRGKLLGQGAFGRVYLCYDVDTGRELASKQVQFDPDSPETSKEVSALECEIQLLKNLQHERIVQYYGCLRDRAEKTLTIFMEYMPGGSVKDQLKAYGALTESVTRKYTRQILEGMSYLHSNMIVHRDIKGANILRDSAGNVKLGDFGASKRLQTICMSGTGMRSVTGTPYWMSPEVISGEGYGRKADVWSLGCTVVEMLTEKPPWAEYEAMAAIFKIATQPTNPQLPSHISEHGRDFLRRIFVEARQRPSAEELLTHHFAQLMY
Assay: KINOMEscan competition binding
Settings: compound 10.0 µM
observed_property: kinase still bound, per cent of control (%)
Express it in %; write the number only.

Some compounds with known kinase still bound, per cent of control results, for comparison:
{"smiles_str": "COc1cc(N2CCC(N3CCN(C)CC3)CC2)ccc1Nc1ncc(Cl)c(Nc2ccccc2S(=O)(=O)C(C)C)n1", "target_or_system": "UniProtKB Q99759", "kinase still bound, per cent of control (%)": 2.8}
{"smiles_str": "CCN1CCN(Cc2ccc(NC(=O)c3ccc(C)c(Oc4ccnc5[nH]ccc45)c3)cc2C(F)(F)F)CC1", "target_or_system": "UniProtKB Q99759", "kinase still bound, per cent of control (%)": 12}
{"smiles_str": "CCN1CCN(Cc2ccc(NC(=O)c3ccc(C)c(/C=C/c4cnc(Nc5cc(N6CCNCC6)nc(C)n5)cn4)c3)cc2C(F)(F)F)CC1", "target_or_system": "UniProtKB Q99759", "kinase still bound, per cent of control (%)": 0.3}

Please turn your attention to the following entry.
Q: Please look up its kinase still bound, per cent of control: CCOc1cc(N2CCC(N3CCCCC3)CC2)ccc1Nc1nc(Nc2ccccc2S(=O)(=O)C(C)C)c2cn[nH]c2n1
A: 69

* * *

Molecular target: CDK8 (human) (UniProt P49336)
Sequence (P49336 whole entry, looked up): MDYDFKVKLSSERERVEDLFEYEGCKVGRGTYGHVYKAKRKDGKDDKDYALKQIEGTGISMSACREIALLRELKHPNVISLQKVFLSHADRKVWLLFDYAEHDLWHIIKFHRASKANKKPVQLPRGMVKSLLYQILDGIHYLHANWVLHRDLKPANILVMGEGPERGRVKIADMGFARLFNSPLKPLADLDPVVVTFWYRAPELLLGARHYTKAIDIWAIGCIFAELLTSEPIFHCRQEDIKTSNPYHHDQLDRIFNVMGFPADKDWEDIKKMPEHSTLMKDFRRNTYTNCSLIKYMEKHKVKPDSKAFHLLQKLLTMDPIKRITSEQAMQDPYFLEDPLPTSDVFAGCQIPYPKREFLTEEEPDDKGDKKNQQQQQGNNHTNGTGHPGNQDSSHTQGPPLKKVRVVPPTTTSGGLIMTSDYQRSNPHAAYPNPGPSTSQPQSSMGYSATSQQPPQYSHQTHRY
Experiment: KINOMEscan competition binding
Conditions: compound 10.0 µM
kinase still bound, per cent of control listing for selected compounds.
Express it in %; write the number only.

{"smiles_str": "CCOc1cc(N2CCC(N3CCCCC3)CC2)ccc1Nc1nc(Nc2ccccc2S(=O)(=O)C(C)C)c2cn[nH]c2n1", "kinase still bound, per cent of control [%]": 100}
{"smiles_str": "COc1cc(N2CCC(N3CCN(C)CC3)CC2)ccc1Nc1ncc(Cl)c(Nc2ccccc2S(=O)(=O)C(C)C)n1", "kinase still bound, per cent of control [%]": 40}
{"smiles_str": "CCN1CCN(Cc2ccc(NC(=O)c3ccc(C)c(/C=C/c4cnc(Nc5cc(N6CCNCC6)nc(C)n5)cn4)c3)cc2C(F)(F)F)CC1", "kinase still bound, per cent of control [%]": 3.6}

Please turn your attention to the following entry.
Q: // fetch CDK8 (human) (UniProt P49336) kinase still bound, per cent of control for CCN1CCN(Cc2ccc(NC(=O)c3ccc(C)c(Oc4ccnc5[nH]ccc45)c3)cc2C(F)(F)F)CC1
A: 3.9

* * *

kinase still bound, per cent of control listing for selected compounds.
Molecular target: JAK1 JH2 pseudokinase (human) (UniProt P23458)
Sequence (P23458 whole entry, looked up): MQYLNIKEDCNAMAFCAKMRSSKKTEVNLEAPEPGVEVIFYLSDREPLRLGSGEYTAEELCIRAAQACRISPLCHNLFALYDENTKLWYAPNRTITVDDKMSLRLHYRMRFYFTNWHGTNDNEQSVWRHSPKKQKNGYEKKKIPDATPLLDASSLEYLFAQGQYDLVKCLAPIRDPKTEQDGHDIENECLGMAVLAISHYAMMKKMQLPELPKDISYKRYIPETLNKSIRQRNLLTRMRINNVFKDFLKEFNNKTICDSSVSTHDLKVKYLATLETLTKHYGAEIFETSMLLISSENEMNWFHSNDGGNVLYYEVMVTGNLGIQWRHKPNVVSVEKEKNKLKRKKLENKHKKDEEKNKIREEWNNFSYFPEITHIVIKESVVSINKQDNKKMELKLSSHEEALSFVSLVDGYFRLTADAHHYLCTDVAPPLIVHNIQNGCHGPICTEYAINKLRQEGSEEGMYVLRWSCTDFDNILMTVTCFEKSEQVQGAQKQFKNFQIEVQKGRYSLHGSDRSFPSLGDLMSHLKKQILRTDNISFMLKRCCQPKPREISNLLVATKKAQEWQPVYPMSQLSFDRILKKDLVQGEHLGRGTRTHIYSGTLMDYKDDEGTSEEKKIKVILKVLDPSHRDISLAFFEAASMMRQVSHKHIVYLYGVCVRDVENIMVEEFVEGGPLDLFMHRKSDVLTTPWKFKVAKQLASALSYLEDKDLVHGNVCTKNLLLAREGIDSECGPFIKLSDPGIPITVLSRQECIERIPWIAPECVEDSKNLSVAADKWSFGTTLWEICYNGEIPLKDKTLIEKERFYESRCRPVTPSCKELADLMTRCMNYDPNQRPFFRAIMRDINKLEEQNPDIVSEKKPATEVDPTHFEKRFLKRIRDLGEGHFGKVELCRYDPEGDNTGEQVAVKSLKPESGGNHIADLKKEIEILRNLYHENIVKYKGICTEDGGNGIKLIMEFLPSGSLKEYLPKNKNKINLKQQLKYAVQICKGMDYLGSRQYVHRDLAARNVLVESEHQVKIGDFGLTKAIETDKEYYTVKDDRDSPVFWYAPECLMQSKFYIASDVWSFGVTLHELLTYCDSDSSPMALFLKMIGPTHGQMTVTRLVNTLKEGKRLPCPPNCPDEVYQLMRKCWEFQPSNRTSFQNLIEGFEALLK
Assay: KINOMEscan competition binding
Details: compound 10.0 µM
Express it in %; write the number only.

{"smiles_str": "CCN1CCN(Cc2ccc(NC(=O)c3ccc(C)c(Oc4ccnc5[nH]ccc45)c3)cc2C(F)(F)F)CC1", "result_unit": "%", "kinase still bound, per cent of control": 11}
{"smiles_str": "CCN1CCN(Cc2ccc(NC(=O)c3ccc(C)c(/C=C/c4cnc(Nc5cc(N6CCNCC6)nc(C)n5)cn4)c3)cc2C(F)(F)F)CC1", "result_unit": "%", "kinase still bound, per cent of control": 94}
{"smiles_str": "CCOc1cc(N2CCC(N3CCCCC3)CC2)ccc1Nc1nc(Nc2ccccc2S(=O)(=O)C(C)C)c2cn[nH]c2n1", "result_unit": "%", "kinase still bound, per cent of control": 1.3}

Q: Please look up its kinase still bound, per cent of control: COc1cc(N2CCC(N3CCN(C)CC3)CC2)ccc1Nc1ncc(Cl)c(Nc2ccccc2S(=O)(=O)C(C)C)n1
A: 4.2

* * *

Test system: EGFR (human), P00533 [L858R]
Experiment: KINOMEscan competition binding
Settings: compound 10.0 µM
kinase still bound, per cent of control listing for selected compounds.

Some compounds with known kinase still bound, per cent of control results, for comparison:
{"smiles_str": "COc1cc(N2CCC(N3CCN(C)CC3)CC2)ccc1Nc1ncc(Cl)c(Nc2ccccc2S(=O)(=O)C(C)C)n1", "observed_property": "kinase still bound, per cent of control", "result": "0.1%"}
{"smiles_str": "CCN1CCN(Cc2ccc(NC(=O)c3ccc(C)c(/C=C/c4cnc(Nc5cc(N6CCNCC6)nc(C)n5)cn4)c3)cc2C(F)(F)F)CC1", "observed_property": "kinase still bound, per cent of control", "result": "3.4%"}
{"smiles_str": "CCN1CCN(Cc2ccc(NC(=O)c3ccc(C)c(Oc4ccnc5[nH]ccc45)c3)cc2C(F)(F)F)CC1", "observed_property": "kinase still bound, per cent of control", "result": "14%"}

Please turn your attention to the following entry.
Q: Please look up its kinase still bound, per cent of control: CCOc1cc(N2CCC(N3CCCCC3)CC2)ccc1Nc1nc(Nc2ccccc2S(=O)(=O)C(C)C)c2cn[nH]c2n1
A: 6.6%

* * *

kinase still bound, per cent of control listing for selected compounds.
Biological target: TEK (human)
Assay: KINOMEscan competition binding
Conditions: compound 10.0 µM
Express it in %; write the number only.

{"smiles_str": "CCN1CCN(Cc2ccc(NC(=O)c3ccc(C)c(Oc4ccnc5[nH]ccc45)c3)cc2C(F)(F)F)CC1", "target_or_system": "TEK (human)", "readout_number": 0}

Q: Please look up its kinase still bound, per cent of control: CCN1CCN(Cc2ccc(NC(=O)c3ccc(C)c(/C=C/c4cnc(Nc5cc(N6CCNCC6)nc(C)n5)cn4)c3)cc2C(F)(F)F)CC1
A: 0

Q: Now the compound CCOc1cc(N2CCC(N3CCCCC3)CC2)ccc1Nc1nc(Nc2ccccc2S(=O)(=O)C(C)C)c2cn[nH]c2n1
A: 100

Q: Now the compound COc1cc(N2CCC(N3CCN(C)CC3)CC2)ccc1Nc1ncc(Cl)c(Nc2ccccc2S(=O)(=O)C(C)C)n1
A: 0

* * *

Molecular target: RAF1 (human) (UniProt P04049)
Sequence (P04049 whole entry, looked up): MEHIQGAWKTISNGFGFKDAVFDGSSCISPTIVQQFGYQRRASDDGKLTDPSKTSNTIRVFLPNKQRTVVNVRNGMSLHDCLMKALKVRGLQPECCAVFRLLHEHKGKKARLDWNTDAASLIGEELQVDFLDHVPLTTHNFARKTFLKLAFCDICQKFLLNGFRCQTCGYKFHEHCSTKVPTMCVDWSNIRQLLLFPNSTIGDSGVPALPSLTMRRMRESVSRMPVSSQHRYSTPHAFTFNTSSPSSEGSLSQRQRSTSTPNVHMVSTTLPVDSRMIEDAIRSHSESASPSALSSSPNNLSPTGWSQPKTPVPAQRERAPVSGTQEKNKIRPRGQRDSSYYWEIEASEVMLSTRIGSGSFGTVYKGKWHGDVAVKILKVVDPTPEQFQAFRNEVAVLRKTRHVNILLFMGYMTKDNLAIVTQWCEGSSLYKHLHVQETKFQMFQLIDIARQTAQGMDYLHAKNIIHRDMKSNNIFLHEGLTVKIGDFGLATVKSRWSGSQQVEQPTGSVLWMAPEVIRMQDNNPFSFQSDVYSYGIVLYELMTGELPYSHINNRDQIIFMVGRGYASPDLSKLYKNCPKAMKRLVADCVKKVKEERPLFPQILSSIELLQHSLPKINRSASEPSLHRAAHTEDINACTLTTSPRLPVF
Assay: KINOMEscan competition binding
Settings: compound 10.0 µM
observed_property: kinase still bound, per cent of control (%)
Express it in %; write the number only.

{"smiles_str": "CCN1CCN(Cc2ccc(NC(=O)c3ccc(C)c(Oc4ccnc5[nH]ccc45)c3)cc2C(F)(F)F)CC1", "result_unit": "%", "readout_number": 7}
{"smiles_str": "CCN1CCN(Cc2ccc(NC(=O)c3ccc(C)c(/C=C/c4cnc(Nc5cc(N6CCNCC6)nc(C)n5)cn4)c3)cc2C(F)(F)F)CC1", "result_unit": "%", "readout_number": 43}
{"smiles_str": "COc1cc(N2CCC(N3CCN(C)CC3)CC2)ccc1Nc1ncc(Cl)c(Nc2ccccc2S(=O)(=O)C(C)C)n1", "result_unit": "%", "readout_number": 40}

Q: // fetch RAF1 (human) (UniProt P04049) kinase still bound, per cent of control for CCOc1cc(N2CCC(N3CCCCC3)CC2)ccc1Nc1nc(Nc2ccccc2S(=O)(=O)C(C)C)c2cn[nH]c2n1
A: 100
